target: UniProtKB P56373; assay: P2X3 receptor inhibition, ATP-evoked Fluo-3 fluorescence (FDSS 3000); settings: C6BU-1 cell transfected with human P2X3 receptor gene
Sequence (P56373 whole entry): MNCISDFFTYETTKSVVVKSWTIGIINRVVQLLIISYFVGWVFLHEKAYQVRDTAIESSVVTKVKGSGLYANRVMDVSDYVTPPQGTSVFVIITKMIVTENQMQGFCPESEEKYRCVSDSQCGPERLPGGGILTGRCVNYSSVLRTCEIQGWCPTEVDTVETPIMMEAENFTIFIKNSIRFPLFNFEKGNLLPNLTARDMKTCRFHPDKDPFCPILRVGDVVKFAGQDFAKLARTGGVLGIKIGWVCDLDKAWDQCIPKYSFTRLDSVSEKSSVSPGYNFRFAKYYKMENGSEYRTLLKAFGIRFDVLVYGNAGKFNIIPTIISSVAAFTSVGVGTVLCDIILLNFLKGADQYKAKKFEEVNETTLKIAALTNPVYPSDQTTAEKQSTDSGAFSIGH
I'd be grateful if you could share measured pIC50 for these entries.
One number for each entry, as −log10 of the molar value.

In the examples that follow, each entry is paired with its recorded pIC50.
COC(=O)[C@@H](C)Cn1c(=O)[nH]/c(=N\c2ccc(OC(C)C)c(F)c2)n(Cc2ccc(Cl)cc2)c1=O [I-453] | 8.30
CCCSc1ccc(Nc2nc(=O)n(CCO)c(=O)n2Cc2ccc(Cl)cc2)cc1 [I-379] | 6.48
CC(C)Oc1ccc(Nc2nc(=O)n(CCO)c(=O)n2Cc2ccc(F)c(F)c2)cc1F [I-339] | 6.11

Here's the next entry for you.
Query: Dear colleague, I am looking for the recorded pIC50 of the following compound: CCOC(=O)CCCn1c(=O)[nH]/c(=N\c2ccc(OC(C)C)c(C)c2)n(Cc2ccc(Cl)cc2)c1=O [I-502]
Response: 7.70

From: patent US9150546B2
